Origin of measurements: PubChem BioAssay (NCATS)

Assay Info: Quantitative highthroughput screen to assess conditional lethalithy of P12 Ichikawa cells grown in RPMI1640 with dialyzed fetal bovine serum (RPMI+ds) (AID 1963880); note: nearly all actives have a fitted effect of over 35% in size; note: potency is the fitted concentration of half-maximal effect
Condition Description: ATP luminescence, 48 h; P12-Ichikawa viability; series mostly up to 45.8 µM
Records with an inconclusive call do not appear. Active and inactive are the calls of the source. Calls come from the whole dose curve; as a rule, active = well fitted cell-killing curve with a large enough effect; inconclusive = small, poorly fitted or top-dose-only effect; inactive = flat fitted curve, though single readings scatter.
Measured Property: Potency

Examples from the recorded data:
INSERT INTO assay_data (compound, result) VALUES
  ('C#CCN(C)CC1=Cc2ccccc2Oc2ccccc21', 'inactive'),
  ('O=c1c(O)c(-c2cc(O)c(O)c(O)c2)oc2cc(O)cc(O)c12', 'inactive'),
  ('Cc1c(C(=O)Nc2ccc(N3C[C@@H](C)O[C@@H](C)C3)nc2)cccc1-c1ccc(OC(F)(F)F)cc1', '4.18 µM (active)'),
  ('CC(C)[C@H](N)C(=O)OCCOCn1cnc2c(=O)[nH]c(N)nc21', 'inactive'),
  ('Nc1cccc2c1C(=O)N(C1CCC(=O)NC1=O)C2=O (centres undefined)', '14.8 µM (active)'),
  ('CN(CCOc1ccc(CC2SC(=O)NC2=O)cc1)c1ccccn1 (centres undefined)', 'inactive'),
  ('Nc1nc(F)nc2c1ncn2[C@@H]1O[C@H](CO)[C@@H](O)[C@@H]1O', '0.372 µM (active)'),
  ('CCOC(=O)[C@H]1O[C@H]1C(=O)N[C@@H](CC(C)C)C(=O)NCCC(C)C', 'inactive');

[ask] Answer with the recorded Potency for the compound listed here: CC(C)(C#N)c1cc(Cn2cncn2)cc(C(C)(C)C#N)c1
[reply] inactive

[ask] Answer with the recorded Potency for the compound listed here: O=C(C=Cc1ccc(/C=C/C(=O)Nc2ccc(C3=NCCN3)cc2)cc1)Nc1ccc(C2=NCCN2)cc1
[reply] inactive

[ask] Answer with the recorded Potency for the compound listed here: N[C@@H]1CONC1=O
[reply] inactive

[ask] Answer with the recorded Potency for the compound listed here: CCOC(=O)C(C)(C)Oc1ccc(Cl)cc1
[reply] inactive

[ask] Answer with the recorded Potency for the compound listed here: CC(C)N(CC[C@H](c1ccccc1)c1cc(CO)ccc1O)C(C)C
[reply] inactive

[ask] Answer with the recorded Potency for the compound listed here: NC(=O)c1ccc(I)c([N+](=O)[O-])c1
[reply] inactive

[ask] Answer with the recorded Potency for the compound listed here: NS(=O)(=O)c1cc(C(=O)O)c(NCc2ccco2)cc1Cl
[reply] inactive

[ask] Answer with the recorded Potency for the compound listed here: O=C(Nc1ccc([N+](=O)[O-])cc1Cl)c1cc(Cl)ccc1O
[reply] 2.96 µM (active)

[ask] Answer with the recorded Potency for the compound listed here: Cc1[nH]c2ccccc2c1CCNCc1ccc(C=CC(=O)NO)cc1
[reply] 0.662 µM (active)

[ask] Answer with the recorded Potency for the compound listed here: C[Se]CCC(N)C(=O)O (centres undefined)
[reply] inactive

[ask] Answer with the recorded Potency for the compound listed here: CCOC(=O)C=C[C@H](C[C@@H]1CCNC1=O)NC(=O)[C@@H](CC(=O)[C@@H](NC(=O)c1cc(C)on1)C(C)C)Cc1ccc(F)cc1
[reply] inactive

[ask] Answer with the recorded Potency for the compound listed here: NC(=O)OCC(COC(N)=O)c1ccccc1
[reply] inactive

[ask] Answer with the recorded Potency for the compound listed here: CN(N=O)C(=O)N[C@H]1C(O)OC(CO)[C@@H](O)[C@H]1O (some centres undefined)
[reply] inactive

[ask] Answer with the recorded Potency for the compound listed here: CCc1cnn2c(NCc3ccc[n+]([O-])c3)cc(N3CCCC[C@@H]3CCO)nc12
[reply] 0.118 µM (active)

[ask] Answer with the recorded Potency for the compound listed here: CC1(C)S[C@H]2[C@H](NC(=O)[C@@H](N)c3ccc(O)cc3)C(=O)N2[C@@H]1C(=O)O
[reply] 5.9 µM (active)

[ask] Answer with the recorded Potency for the compound listed here: COc1ccc2c(OCc3nnc4ccc(-c5ccccc5)nn34)ccnc2c1
[reply] inactive
